Test system: Klebsiella pneumoniae
Assay: Antibacterial activity against Klebsiella pneumoniae ATCC 13833 incubated for 18 to 24 hrs by CLSI based microdilution broth method
Assay type: functional
Settings: Klebsiella pneumoniae, ATCC 13833; time 18-24 hrs; read-out: MIC
reported-endpoint: MIC (µg/mL)

Study these solved cases before continuing.
q: Supply measured MIC of N=C(N)NCCCCCCCCN(CCCCCCCCNC(=N)NCC1CC1)C(=O)N(CCCCCCCCNC(=N)N)CCCCCCNC(=N)NCC1CC1.O=C(O)C(F)(F)F in your reply.
a: 4

q: Supply measured MIC of CC(C)CNC(=N)NCCCCCCCCN(CCCCCCCCNC(=N)N)C(=O)N(CCCCCCCCNC(=N)N)CCCCCCCCNC(=N)NCC(C)C.O=C(O)C(F)(F)F in your reply.
a: 4

[I] N=C(N)NCCCCCCN(CCCCCCCCNC(=N)NCC1CC1)C(=O)N(CCCCCCCCNC(=N)NCC1CC1)CCCCCCNC(=N)N.O=C(O)C(F)(F)F
[II] N=C(N)NCCCCCCCCN(CCCCCCCCNC(=N)NC1CCCC1)C(=O)N(CCCCCCCCNC(=N)N)CCCCCCCCNC(=N)NC1CCCC1.O=C(O)C(F)(F)F
[III] O=C(O)C(F)(F)F.[N-]=[N+]=NCCCCCCCCN(CCCCCCCCNC(=N)NCC1CC1)C(=O)N(CCCCCCCCN=[N+]=[N-])CCCCCCCCNC(=N)NCC1CC1
[IV] N=C(N)NCCCCCCCCN(CCCCCCCCNC(=N)NCCN1CCOCC1)C(=O)N(CCCCCCCCNC(=N)N)CCCCCCCCNC(=N)NCCN1CCOCC1.O=C(O)C(F)(F)F
q: Hey, quick one: sort these by MIC, largest value first please. Please respond by ranking the labels in the order requested.
a: III, IV, I, II
(III: 16 µg/mL, IV: 4 µg/mL, I: 2 µg/mL, II: 1 µg/mL)

Origin of the recorded values: ChEMBL document CHEMBL5500347
